# Test system: 521955-158-R2-J5-PDC complex spheroid viability;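 note: spheroids exposed to agents for seven days; percent of DMSO vehicle control luminescence viability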
# assayComment: Anticancer human tumor 521955-158-R2-J5-PDC patient-derived pancreatic carcinoma cell line growth inhibition
# appliedConditions: second compound 1 µM; first compound 0.03 µM; stronger effect = lower value
Catalogue of viability, T/C readings, one per entry.

Completed entries (count: 8):
Nc1ccccc1NC(=O)c1ccc(CNC(=O)OCc2cccnc2)cc1 + NC1CCC(NC2CC2c2ccccc2)CC1 = 101%
O=C(C=Cc1cccc(S(=O)(=O)Nc2ccccc2)c1)NO + NC1CC1c1ccc(-c2cccc(O)c2)cc1 = 107%
Nc1ccn(C2OC(CO)C(O)C2(F)F)c(=O)n1 (stereo unspecified) + NC1CC1c1ccc(-c2cccc(O)c2)cc1 = 63.3%
CCc1c2c(nc3ccc(O)cc13)-c1cc3c(c(=O)n1C2)COC(=O)[C@]3(O)CC + NC1CC1c1ccc(-c2cccc(O)c2)cc1 = 1.1%
NS(=O)(=O)OCC1CC(n2ccc3c(NC4CCc5ccccc54)ncnc32)CC1O (stereo unspecified) + NC1CC1c1ccc(-c2cccc(O)c2)cc1 = 62.5%
Nc1ccccc1NC(=O)c1ccc(CNC(=O)OCc2cccnc2)cc1 + NC1CC1c1ccc(-c2cccc(O)c2)cc1 = 88.5%
Nc1ncn(C2CC(O)C(CO)S2)c(=O)n1 (stereo unspecified) + NC1CCC(NC2CC2c2ccccc2)CC1 = 82.8%
NS(=O)(=O)OCC1CC(n2ccc3c(NC4CCc5ccccc54)ncnc32)CC1O (stereo unspecified) + NC1CCC(NC2CC2c2ccccc2)CC1 = 47.3%

Enquiry: Form field: viability, T/C recorded for Nc1ccn(C2OC(CO)C(O)C2(F)F)c(=O)n1 (stereo unspecified) + NC1CCC(NC2CC2c2ccccc2)CC1 with 521955-158-R2-J5-PDC complex spheroid viability (enter value)
Return: 74.8%

Enquiry: What viability, T/C appears in the records for this molecule with 521955-158-R2-J5-PDC complex spheroid viability? CCN(c1cc(-c2ccc(CN3CCOCC3)cc2)cc(C(=O)NCc2c(C)cc(C)[nH]c2=O)c1C)C1CCOCC1 + NC1CC1c1ccc(-c2cccc(O)c2)cc1
Return: 88.3%

Enquiry: Provide the documented viability, T/C with 521955-158-R2-J5-PDC complex spheroid viability as the system for CCc1c2c(nc3ccc(O)cc13)-c1cc3c(c(=O)n1C2)COC(=O)[C@]3(O)CC + NC1CCC(NC2CC2c2ccccc2)CC1
Return: 0.59%

Cited source: PubChem BioAssay AID1918937
